List of growth values.
Test system: A498 renal
ASSAY_OVERVIEW: NCI-60 one-dose screen, 48 h (100 = growth as untreated, 0 = no growth, -100 = all killed)
ASSAY_CONTEXT: 10 µM unless noted
This is part of a sample that, as a whole, favours compounds with a hit. Of some 83,000 tested, about 20% had one in any assay.
Give your result in % as a bare value.

Examples with answers:
COMPOUND	ENDPOINT	MEAS_VALUE
COc1ccc(-n2c(C)cc(-c3ccccc3)c2C)cc1	growth	35.2
COc1ccc2c(c1)C=CC(C#N)N2C(=O)c1ccccc1 (stereo unspecified)	growth	-5.22
C#CCN1C(=O)/C(=c2\sc3n(c2=O)C2C(NN=3)N(CC)C(=O)N2CC)c2ccccc21 (stereo unspecified)	growth	-33.8

Value lookup for growth; key = O=C(Nc1ccc(I)cc1)c1cccc([N+](=O)[O-])c1O
-6.2

Also need COc1cccc(-n2cc(-c3nc(Cl)c4ccccc4n3)nn2)c1 , thanks.
72.9

Also need COc1ccc(C(=O)c2cc(OC)c(OC)c(OC)c2)cc1/C=C/C(=O)c1ccc(OC)c(OC)c1 , thanks.
74.1

Also need CC[C@H](C)[C@@H]1NC(=O)[C@H]([C@@H](C)O)NC(=O)C(Cc2ccccc2)NC(=O)[C@@H]2CCCN2C(=O)C(C(C)C)NC(=O)C(Cc2ccccc2)NC(=O)CNC(=O)[C@@H]2CCCN2C1=O (stereo partly specified) , thanks.
26.1

Also need C/C(=N\NC(=O)CC#N)c1cc2cc(Cl)ccc2o1 , thanks.
111

Also need Nc1nc(N)c2nc(CNc3ccc(C(=O)CC(CCC(=O)O)C(=O)O)cc3)cnc2n1 (stereo unspecified) , thanks.
51.4

----------
Tested on: UACC-62 melanoma
ASSAY_OVERVIEW: NCI-60 one-dose screen, 48 h (100 = growth as untreated, 0 = no growth, -100 = all killed)
ASSAY_CONTEXT: 10 µM unless noted
Compounds without any hit were thinned out: in the full panel of roughly 83,000, 20% have a hit.
List of growth values.
Give your result in % as a bare value.

> print(dat)
                                   molecule  endpoint  meas.value
1  O=C(O)c1cccc([N+](=O)[O-])c1/C=C/c1ccccc1    growth         107
2                    Oc1ccc(N=Cc2ccccc2)cc1    growth        97.5
3  Cc1oc2nc[nH]c(=O)c2c1C(=O)/C=C/c1ccc(Cl)cc1    growth        18.2
4  CCCCOc1nc2c(C)cccc2cc1C1CNC(=O)c2ccccc2N1 (stereo not given)    growth        29.1

Next:
What is its growth for UACC-62 melanoma? Entry: COC(=O)c1cc(-c2cccs2)c(C#N)c(N)c1C#N
99.3

----------
Tested on: MCF7 breast
ASSAY_OVERVIEW: NCI-60 one-dose screen, 48 h (100 = growth as untreated, 0 = no growth, -100 = all killed)
ASSAY_CONTEXT: 10 µM unless noted
About 83,000 compounds went through this panel and 20% of them were active in at least one assay; those are over-represented in the sample as a whole.
Exam item: assign condition met to entries whose growth is below 90% and condition not met to entries at or above 90%. Note that a value of exactly 90% receives condition not met.

> print(dat)
                                   compound          group
1  O=c1c2cccc3c(Nc4ccc(F)cc4)ccc(c32)c2nc3ccccc3n12  condition met

Quick check: growth of COc1ccc(C(=O)/C=C/c2ccc(/C=C/c3cc(OC)c(OC)c(OC)c3)cc2)cc1 under 90%?
condition met

----------
Test system: SF-268 CNS
ASSAY_OVERVIEW: NCI-60 one-dose screen, 48 h (100 = growth as untreated, 0 = no growth, -100 = all killed)
ASSAY_CONTEXT: 10 µM unless noted
The panel holds about 83,000 compounds, 20% with a hit somewhere; the sample as a whole holds those more often.
ENDPOINT: growth (%)
Give your result in % as a bare value.

Examples with answers:
> print(dat)
                                   molecule  meas.value
1    COc1cc(Cn2c(-c3nonc3N)nc3ccccc32)ccc1C        40.3
2  COc1ccc2c(c1)C(C)Cc1c(N(C)C)ncnc1N2C (stereo not given)        46.1
3  C=CC(=O)N[C@H](/C=C/C(=O)OCC)Cc1ccc(-c2cc(Cl)cc(Cl)c2)cc1        84.7
4  COc1cc2oc(-c3cccc(NC(=O)Nc4ccc5c(c4)OCO5)c3)cc(=O)c2c(OC)c1OC        75.6
5  O=C(CSc1nc(-c2ccc(Cl)cc2)cn1-c1ccc(Cl)cc1)c1ccc(Br)cc1        78.1
6  COc1ccc(/C=C2\C(=O)N(C(=O)c3csc(NC(C)=O)n3)N=C2C)cc1        99.1

What is its growth for SF-268 CNS? Entry: CC(=O)c1cc(C(=O)c2ccc3c(c2)Sc2ccccc2N3)c2cc(C)ccn12
22.1

----------
Tested on: TK-10 renal
ASSAY_OVERVIEW: NCI-60 one-dose screen, 48 h
ASSAY_CONTEXT: 10 µM unless noted
Compounds without any hit were thinned out: in the full panel of roughly 83,000, 20% have a hit. Activity calls are given as the source filed them. The calls were made as follows: active = growth percent below 10; inactive = the rest.
The categories you may choose from are yes (1) for active, no (0) for inactive

Please share the test call associated with COc1cc(/C=C\c2cc(OC)c(OC)c(OC)c2)cc(N/C=C\C(=O)c2c[nH]c3ccccc23)c1OC .
yes (1)

Also need COc1cc(C(=O)N2CCN(C(=O)c3ccco3)CC2)c(N)cc1OCc1ccccc1 , thanks.
no (0)

Also need COc1ccc(/C=C/C(=O)OCC(=O)NNC(=O)c2ccccc2)cc1OC , thanks.
no (0)

----------
List of growth values.
System: OVCAR-8 ovarian
ASSAY_OVERVIEW: NCI-60 one-dose screen, 48 h (100 = growth as untreated, 0 = no growth, -100 = all killed)
ASSAY_CONTEXT: 10 µM unless noted
Compounds without any hit were thinned out: in the full panel of roughly 83,000, 20% have a hit.
Give your result in % as a bare value.

Value lookup for growth; key = CCC1CCc2nc3sc(C(=O)Nc4cccc(C)c4)c(N)c3cc2C1 (centres undefined)
94.2

Also need COc1ccc(OC)c(/C=C2\Oc3cc(OCCN4CCCC4)ccc3C2=O)c1 , thanks.
92

Also need COC1=CC(c2ccc[nH]2)=N/C1=C\c1[nH]c(C)c(C(=O)CCCCC(=O)Oc2ccc3c(c2)CCC2C3CC[C@]3(C)[C@@H](O)CC[C@@H]23)c1C (some centres undefined) , thanks.
70.8

Also need CCOC(=O)c1ccccc1NC(c1ccccc1)c1ccc2cccnc2c1O (centres undefined) , thanks.
17

----------
Tested on: M14 melanoma
ASSAY_OVERVIEW: NCI-60 one-dose screen, 48 h (100 = growth as untreated, 0 = no growth, -100 = all killed)
ASSAY_CONTEXT: 10 µM unless noted
The panel holds about 83,000 compounds, 20% with a hit somewhere; the sample as a whole holds those more often.
List of growth values.
Give your result in % as a bare value.

Examples with answers:
> print(dat)
                           structure.smiles  endpoint  meas.value
1   Cc1cc(Nc2nc(-c3ccncc3)nc3ccccc23)n[nH]1    growth        65.7
2     CCC(=O)Nc1ccccc1C#C/C=C\C#Cc1ccccc1SC    growth        59.9
3  O=S(=O)(NCCNc1cc(-c2cn(-c3ccccc3)nc2-c2ccccc2)ccn1)c1ccc(F)cc1    growth          87

Next:
Value lookup for growth; key = NCCSC(c1ccccc1)(c1ccccc1)c1ccccc1
-9.88

----------
List of growth values.
Test system: MOLT-4 leukemia
ASSAY_OVERVIEW: NCI-60 one-dose screen, 48 h (100 = growth as untreated, 0 = no growth, -100 = all killed)
ASSAY_CONTEXT: 10 µM unless noted
The panel holds about 83,000 compounds, 20% with a hit somewhere; the sample as a whole holds those more often.
Give your result in % as a bare value.

Examples with answers:
> print(dat)
                                   compound    system.tested  unit.symbol  meas.value
1  COc1ccc(NC(=O)CSc2nc3ccc(Cl)cc3c(=O)n2-c2ccccc2C(F)(F)F)c(OC)c1OC  MOLT-4 leukemia            %         106
2  COc1cc(C(=O)/C=C/c2cc(C(=O)c3cc(OC)c(OC)c(OC)c3)ccc2OC)ccc1N  MOLT-4 leukemia            %        4.31

What is its growth for MOLT-4 leukemia? Entry: Cc1cc(C(=O)O)c(N)c(C)n1
101

Also need C=C1C(=O)O[C@H]2[C@H]1CC/C(Cn1cc(-c3ccsc3)nn1)=C\CC[C@@]1(C)O[C@@H]21 , thanks.
-13.3

Also need CCc1cccc(C)c1NC(=O)c1sc2nc3c(cc2c1N)C(=O)CCC3 , thanks.
18

Also need COc1ccc(C(=O)/C=C/c2cc(C(=O)c3cc(OC)c(OC)c(OC)c3)ccc2OC)cc1 , thanks.
10.5

Also need CCO/C=N/NC(=O)c1ccncc1 , thanks.
107

Also need O=C(O)c1cccc([N+](=O)[O-])c1/C=C/c1ccccc1 , thanks.
97.7

Also need O=Nc1c(-c2c(O)[nH]c3ccc([N+](=O)[O-])cc23)[nH]c2ccc(O)cc12 , thanks.
2.17

Also need CN1C(=O)[C@H]2c3c1cccc3[C@@]13NC(=O)O[C@H]1[C@H](CCC3(C)C)C2(C)C , thanks.
79.4

Also need CCN1C(=O)N(CC)C2C1NN=c1s/c(=C\c3ccccn3)c(=O)n12 (stereo unspecified) , thanks.
42.5
